Target: D(4) dopamine receptor (Homo sapiens)
Sequence (P21917 whole entry): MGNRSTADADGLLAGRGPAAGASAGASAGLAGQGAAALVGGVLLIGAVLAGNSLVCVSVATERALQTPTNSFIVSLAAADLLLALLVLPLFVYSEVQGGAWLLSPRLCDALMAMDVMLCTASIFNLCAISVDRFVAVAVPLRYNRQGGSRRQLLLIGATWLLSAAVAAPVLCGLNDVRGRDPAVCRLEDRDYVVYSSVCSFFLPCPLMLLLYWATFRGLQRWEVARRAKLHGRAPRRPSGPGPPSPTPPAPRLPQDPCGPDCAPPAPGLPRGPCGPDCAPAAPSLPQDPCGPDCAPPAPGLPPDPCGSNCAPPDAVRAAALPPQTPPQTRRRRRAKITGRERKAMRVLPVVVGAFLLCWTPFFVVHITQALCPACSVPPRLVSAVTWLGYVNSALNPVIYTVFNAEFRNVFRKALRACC
Please provide measured pKi for the entries that follow.
// pKi: -log10(molar conc.)

Enquiry: Recorded pKi for O=C1c2ccc(F)cc2CC1CCN1CCCN(c2ccccn2)CC1 (configuration not stated) , please?
Return: 6.72

Enquiry: Find the recorded pKi belonging to "Fc1ccc(CCCCN2CCN(c3cccc(-c4ccccc4)n3)CC2)cc1" and report it.
Return: 7.08

Enquiry: Look at this compound and give its reported pKi. "O=C(CCCN1C2CCC1CN(c1ccc(Cl)cn1)C2)c1ccc(F)cc1"
Return: 6.92

Enquiry: Item under review: "Fc1ccc(CCCCN2CCN(c3ccc(-c4ccccc4)cn3)CC2)cc1" . Reported pKi?
Return: 5.65

Enquiry: What value of pKi has been reported for the following compound? O=C1c2ccc(F)cc2CC1CCN1CCCN(c2ccc(Cl)cn2)CC1 (configuration not stated)
Return: 7.44

Enquiry: Entry under review: "Fc1ccc(CCCCN2CCN(c3cccnc3)CC2)cc1" . Reported pKi?
Return: 7.80

Enquiry: I'd like to know its pKi. The compound in question is Fc1ccc2c(c1)CC(CCN1CCCN(c3ccccn3)CC1)C2 (configuration not stated)
Return: 6.98

Enquiry: Data request, read-out pKi, for "Fc1ccc(CCCCN2CCN(c3ccncc3)CC2)cc1"
Return: 5.69

Enquiry: Give its pKi value. Item: "O=C(CCCN1CCCN(c2ccc(Cl)cn2)CC1)c1ccc(F)cc1"
Return: 7.43

Enquiry: Fill blank: measured pKi of the compound "O=C(CCCN1CCCN(c2ccccn2)CC1)c1ccc(F)cc1" is ____.
Return: 6.59

Enquiry: Look up pKi for this compound: "O=C(CCCN1CCN(c2cccnc2)CC1)c1ccc(F)cc1"
Return: 7.52

Enquiry: Query (compound): "Fc1ccc(CCCCN2C3CCC2CN(c2ccc(Cl)cn2)C3)cc1" ; field requested: pKi
Return: 7.36
